# method_summary: Cytotoxicity against human HCT116 cells
# Format: functional, cell-based
# applied_conditions: HCT-116
pIC50: −log10 of the molar value.
Quick list: pIC50 per entry.

The following molecules have reported results that may help.
{"chem_smiles": "C[C@H]1[C@H](C)CC[C@]2(C)CC[C@]3(C)C(=CC[C@@H]4[C@@]5(C)CC[C@@H](O)[C@](C)(NC(=O)CCCCCCCC(=O)O)[C@@H]5CC[C@]43C)[C@H]12", "reported": "< 4.70"}
{"chem_smiles": "C[C@H]1[C@H](C)CC[C@]2(C)CC[C@]3(C)C(=CC[C@@H]4[C@@]5(C)CC[C@@H](O)[C@](C)(NC(=O)CCCCCCC(=O)NO)[C@@H]5CC[C@]43C)[C@H]12", "reported": "< 4.70"}
{"chem_smiles": "COC(=O)CCCCC(=O)N[C@]1(C)[C@@H]2CC[C@]3(C)[C@H](CC=C4[C@@H]5[C@@H](C)[C@H](C)CC[C@]5(C)CC[C@]43C)[C@@]2(C)CC[C@H]1OC(C)=O", "reported": "< 4.70"}
{"chem_smiles": "C[C@H]1[C@H](C)CC[C@]2(C)CC[C@]3(C)C(=CC(=O)[C@@H]4[C@@]5(C)CC[C@@H](O)[C@](C)(NC(=O)CCCCCCC(=O)O)[C@@H]5CC[C@]43C)[C@H]12", "reported": "< 4.70"}

Could you now look at the following molecule, please?
Asked: Identify measured pIC50 associated with `COC(=O)CCCCCCC(=O)N[C@]1(C)[C@@H]2CC[C@]3(C)[C@H](C(=O)C=C4[C@@H]5[C@@H](C)[C@H](C)CC[C@]5(C)CC[C@]43C)[C@@]2(C)CC[C@H]1OC(C)=O`
Given back: 4.80

----------
# method_summary: Cytotoxicity against human HCT116 cells
# Assay type: functional, cell-based
# applied_conditions: HCT-116
Quick list: IC50 per entry.
Give just the numeric value; µM need not be written.

The following molecules have reported results that may help.
{"chem_smiles": "C[C@H]1[C@H](C)CC[C@]2(C)CC[C@]3(C)C(=CC(=O)[C@@H]4[C@@]5(C)CC[C@@H](O)[C@](C)(NC(=O)CCCCCCCC(=O)NO)[C@@H]5CC[C@]43C)[C@H]12", "reported": 12}
{"chem_smiles": "C[C@H]1[C@H](C)CC[C@]2(C)CC[C@]3(C)C(=CC(=O)[C@@H]4[C@@]5(C)CC[C@@H](O)[C@](C)(NC(=O)CCCCCCC(=O)NO)[C@@H]5CC[C@]43C)[C@H]12", "reported": 5.2}

Asked: Identify measured IC50 associated with `C[C@H]1[C@H](C)CC[C@]2(C)CC[C@]3(C)C(=CC[C@@H]4[C@@]5(C)CC[C@@H](O)[C@](C)(NC(=O)CCCCCCCC(=O)NO)[C@@H]5CC[C@]43C)[C@H]12`
Given back: 11.8

----------
# method_summary: Cytotoxicity against human HCT116 cells
# Type: functional, cell-based
# applied_conditions: HCT-116
pIC50: −log10 of the molar value.
test_readout: pIC50

{"chem_smiles": "COC(=O)CCCCCCC(=O)N[C@]1(C)[C@@H]2CC[C@]3(C)[C@H](CC=C4[C@@H]5[C@@H](C)[C@H](C)CC[C@]5(C)CC[C@]43C)[C@@]2(C)CC[C@H]1OC(C)=O", "reported": "< 4.70"}
{"chem_smiles": "COC(=O)CCCCCCCC(=O)N[C@]1(C)[C@@H]2CC[C@]3(C)[C@H](CC=C4[C@@H]5[C@@H](C)[C@H](C)CC[C@]5(C)CC[C@]43C)[C@@]2(C)CC[C@H]1OC(C)=O", "reported": "< 4.70"}
{"chem_smiles": "C[C@H]1[C@H](C)CC[C@]2(C)CC[C@]3(C)C(=CC(=O)[C@@H]4[C@@]5(C)CC[C@@H](O)[C@](C)(NC(=O)CCCCC(=O)NO)[C@@H]5CC[C@]43C)[C@H]12", "reported": "< 4.70"}

Asked: Identify measured pIC50 associated with `C[C@H]1[C@H](C)CC[C@]2(C)CC[C@]3(C)C(=CC[C@@H]4[C@@]5(C)CC[C@@H](O)[C@](C)(NC(=O)CCCCC(=O)NO)[C@@H]5CC[C@]43C)[C@H]12`
Given back: < 4.70

Asked: Identify measured pIC50 associated with `C[C@H]1[C@H](C)CC[C@]2(C)CC[C@]3(C)C(=CC(=O)[C@@H]4[C@@]5(C)CC[C@@H](O)[C@](C)(NC(=O)CCCC(=O)NO)[C@@H]5CC[C@]43C)[C@H]12`
Given back: 4.82

----------
# method_summary: Cytotoxicity against human HL60 cells
# Assay type: functional, cell-based
# applied_conditions: HL-60
Quick list: IC50 per entry.

The following molecules have reported results that may help.
{"molecule": "CC(=O)O[C@@H]1CC[C@]2(C)[C@H]3C(=O)C=C4[C@@H]5[C@@H](C)[C@H](C)CC[C@]5(C)CC[C@@]4(C)[C@]3(C)CC[C@H]2[C@@]1(C)N", "IC50": "6.1 µM"}
{"molecule": "C[C@H]1[C@H](C)CC[C@]2(C)CC[C@]3(C)C(=CC[C@@H]4[C@@]5(C)CC[C@@H](O)[C@](C)(NC(=O)CCCCCCCC(=O)NO)[C@@H]5CC[C@]43C)[C@H]12", "IC50": "12.4 µM"}
{"molecule": "C[C@H]1[C@H](C)CC[C@]2(C)CC[C@]3(C)C(=CC[C@@H]4[C@@]5(C)CC[C@@H](O)[C@](C)(NC(=O)CCCCC(=O)NO)[C@@H]5CC[C@]43C)[C@H]12", "IC50": "> 20 µM"}
{"molecule": "COC(=O)CCCCCCCC(=O)N[C@]1(C)[C@@H]2CC[C@]3(C)[C@H](C(=O)C=C4[C@@H]5[C@@H](C)[C@H](C)CC[C@]5(C)CC[C@]43C)[C@@]2(C)CC[C@H]1OC(C)=O", "IC50": "10 µM"}
{"molecule": "C[C@H]1[C@H](C)CC[C@]2(C)CC[C@]3(C)C(=CC(=O)[C@@H]4[C@@]5(C)CC[C@@H](O)[C@](C)(NC(=O)CCCC(=O)O)[C@@H]5CC[C@]43C)[C@H]12", "IC50": "> 20 µM"}
{"molecule": "C[C@H]1[C@H](C)CC[C@]2(C)CC[C@]3(C)C(=CC[C@@H]4[C@@]5(C)CC[C@@H](O)[C@](C)(NC(=O)CCCCC(=O)O)[C@@H]5CC[C@]43C)[C@H]12", "IC50": "> 20 µM"}
{"molecule": "C[C@H]1[C@H](C)CC[C@]2(C)CC[C@]3(C)C(=CC[C@@H]4[C@@]5(C)CC[C@@H](O)[C@](C)(NC(=O)CCCCCCC(=O)O)[C@@H]5CC[C@]43C)[C@H]12", "IC50": "> 20 µM"}
{"molecule": "C[C@H]1[C@H](C)CC[C@]2(C)CC[C@]3(C)C(=CC(=O)[C@@H]4[C@@]5(C)CC[C@@H](O)[C@](C)(NC(=O)CCCCCCCC(=O)NO)[C@@H]5CC[C@]43C)[C@H]12", "IC50": "> 20 µM"}

Asked: Identify measured IC50 associated with `C[C@H]1[C@H](C)CC[C@]2(C)CC[C@]3(C)C(=CC(=O)[C@@H]4[C@@]5(C)CC[C@@H](O)[C@](C)(NC(=O)CCCCCCCC(=O)O)[C@@H]5CC[C@]43C)[C@H]12`
Given back: 7.5 µM

Asked: Identify measured IC50 associated with `COC(=O)CCCCCCC(=O)N[C@]1(C)[C@@H]2CC[C@]3(C)[C@H](C(=O)C=C4[C@@H]5[C@@H](C)[C@H](C)CC[C@]5(C)CC[C@]43C)[C@@]2(C)CC[C@H]1OC(C)=O`
Given back: > 20 µM

Asked: Identify measured IC50 associated with `C[C@H]1[C@H](C)CC[C@]2(C)CC[C@]3(C)C(=CC(=O)[C@@H]4[C@@]5(C)CC[C@@H](O)[C@](C)(NC(=O)CCCC(=O)NO)[C@@H]5CC[C@]43C)[C@H]12`
Given back: 1.6 µM

Asked: Identify measured IC50 associated with COC(=O)CCCC(=O)N[C@@]1(C)[C@H](OC(C)=O)CC[C@]2(C)C3CC=C4[C@@H]5[C@@H](C)[C@H](C)CC[C@]5(C)CC[C@@]4(C)[C@]3(C)CC[C@@H]12 (single isomer, unassigned)
Given back: 17.1 µM

Asked: Identify measured IC50 associated with `COC(=O)CCCCC(=O)N[C@]1(C)[C@@H]2CC[C@]3(C)[C@H](CC=C4[C@@H]5[C@@H](C)[C@H](C)CC[C@]5(C)CC[C@]43C)[C@@]2(C)CC[C@H]1OC(C)=O`
Given back: > 20 µM

Asked: Identify measured IC50 associated with `COC(=O)CCCCCCC(=O)N[C@]1(C)[C@@H]2CC[C@]3(C)[C@H](CC=C4[C@@H]5[C@@H](C)[C@H](C)CC[C@]5(C)CC[C@]43C)[C@@]2(C)CC[C@H]1OC(C)=O`
Given back: > 20 µM

Asked: Identify measured IC50 associated with `C[C@H]1[C@H](C)CC[C@]2(C)CC[C@]3(C)C(=CC(=O)[C@@H]4[C@@]5(C)CC[C@@H](O)[C@](C)(NC(=O)CCCCCCC(=O)O)[C@@H]5CC[C@]43C)[C@H]12`
Given back: > 20 µM

Asked: Identify measured IC50 associated with `COC(=O)CCCCC(=O)N[C@]1(C)[C@@H]2CC[C@]3(C)[C@H](C(=O)C=C4[C@@H]5[C@@H](C)[C@H](C)CC[C@]5(C)CC[C@]43C)[C@@]2(C)CC[C@H]1OC(C)=O`
Given back: > 20 µM
